Values compiled from patent US5952307A.

Parameter: kobs /[I] human thrombin. Scope: all listed entries.
- Assay system: human thrombin (Homo sapiens)
- Construct: bovine trypsin, human thrombin
- Assay type: biochemical
- Cond: Table III; enzyme 0.06-0.5 μM, inhibitor 0.25-42 μM, 9% DMSO, 25° C.; NI = no inhibition
Write it as a number; the unit M⁻¹ s⁻¹ goes unstated.

CC(C)C(NC(=O)CCC(=O)O)C(=O)N1CCCC1C(=O)NC(CCCCCN)P(=O)(Oc1ccccc1)Oc1ccccc1 (mixture of isomers)
1.6

Now turn to the next compound.
The measured kobs /[I] human thrombin associated with Cl.NCCCCCC(NC(=O)[C@@H]1CCCN1C(=O)c1cccc(Oc2ccccc2)c1)P(=O)(Oc1ccccc1)Oc1ccccc1 (stereo partly shown) reads 27

====

Parameter: kobs /[I] bovine trypsin. Scope: all listed entries.
- Assay system: bovine trypsin (Bos taurus)
- Sequence (P00760 24-246): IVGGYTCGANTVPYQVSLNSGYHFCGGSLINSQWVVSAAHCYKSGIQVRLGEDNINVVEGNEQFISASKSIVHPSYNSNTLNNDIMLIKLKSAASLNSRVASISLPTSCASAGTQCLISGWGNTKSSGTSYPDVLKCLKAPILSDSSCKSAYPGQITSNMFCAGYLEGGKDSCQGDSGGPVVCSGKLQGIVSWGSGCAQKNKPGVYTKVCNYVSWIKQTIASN
- Experiment description: Inactivation rate of bovine trypsin, incubation method
- Format: biochemical
- Cond: Table III; enzyme 0.06-0.5 μM, inhibitor 0.25-42 μM, 9% DMSO, 25° C.; NI = no inhibition
Write it as a number; the unit M⁻¹ s⁻¹ goes unstated.

NCCCCCC(NC(=O)C1CCCN1C(=O)C(N)Cc1ccccc1)P(=O)(Oc1ccccc1)Oc1ccccc1 (mixture of isomers) [D--Phe--Pro-HomoLys^P (OPh)2]
164

Hey, bovine trypsin (Bos taurus) data for CC(C)C(NC(=O)CCC(=O)O)C(=O)N1CCCC1C(=O)NC(CCCCN)P(=O)(Oc1ccccc1)Oc1ccccc1 (mixture of isomers) [Suc--Val--Pro--Lys^P (OPh)2] : kobs /[I] bovine trypsin came out at 416

====

- Assay system: UniProtKB P49864
- Sequence (P49864 26-258): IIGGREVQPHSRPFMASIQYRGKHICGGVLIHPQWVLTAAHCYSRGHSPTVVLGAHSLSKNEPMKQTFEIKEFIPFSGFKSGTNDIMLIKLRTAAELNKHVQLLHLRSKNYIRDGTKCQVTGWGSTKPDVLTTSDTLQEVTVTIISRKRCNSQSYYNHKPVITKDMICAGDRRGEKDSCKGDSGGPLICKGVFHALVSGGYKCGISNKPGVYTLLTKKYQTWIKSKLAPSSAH
- Experiment description: Inactivation rate of rat granzyme K, incubation method
- Format: biochemical
- Cond: Table I; 0.1M Hepes, 0.01M CaCl2 pH 7.5, 25° C., 7.1% DMSO, substrate Z--Arg--SBzl; NI = no inhibition after 25 min of incubation
Property name: kobsd /[I] rat granzyme K

Take a look at these entries with their results.
CC(NC(=O)C(Cc1ccccc1)NC(=O)OCc1ccccc1)C(=O)NC(c1ccc(C(=N)N)cc1)P(=O)(Oc1ccccc1)Oc1ccccc1 (mixture of isomers)
4.2 ± 0.3 M⁻¹ s⁻¹
Cl.N=C(N)c1ccc(C(NC(=O)[C@@H]2CCCN2C(=O)c2ccccc2Oc2ccccc2)P(=O)(Oc2ccccc2)Oc2ccccc2)cc1 (stereo partly drawn)
60 ± 5 M⁻¹ s⁻¹

The measured kobsd /[I] rat granzyme K associated with C[C@H](NC(=O)[C@@H]1CCCN1C(=O)OCc1ccccc1)C(=O)NC(c1ccc(C(=N)N)cc1)P(=O)(Oc1ccccc1)Oc1ccccc1 (stereo partly drawn) reads 5 M⁻¹ s⁻¹

The measured kobsd /[I] rat granzyme K associated with Cl.N=C(N)c1ccc(C(NC(=O)c2ccccc2Oc2ccccc2)P(=O)(Oc2ccccc2)Oc2ccccc2)cc1 (stereo not drawn) reads 1 M⁻¹ s⁻¹

The measured kobsd /[I] rat granzyme K associated with N=C(N)c1ccc(C(NC(=O)Oc2cccc3ccccc23)P(=O)(Oc2ccccc2)Oc2ccccc2)cc1 (stereo not drawn) reads 12 M⁻¹ s⁻¹

The measured kobsd /[I] rat granzyme K associated with Cl.N=C(N)c1ccc(C(NC(=O)C=Cc2ccco2)P(=O)(Oc2ccccc2)Oc2ccccc2)cc1 (stereo not drawn) reads 32 M⁻¹ s⁻¹

====

- Assay system: bovine trypsin (Bos taurus, UniProt P00760)
- Sequence (P00760 24-246): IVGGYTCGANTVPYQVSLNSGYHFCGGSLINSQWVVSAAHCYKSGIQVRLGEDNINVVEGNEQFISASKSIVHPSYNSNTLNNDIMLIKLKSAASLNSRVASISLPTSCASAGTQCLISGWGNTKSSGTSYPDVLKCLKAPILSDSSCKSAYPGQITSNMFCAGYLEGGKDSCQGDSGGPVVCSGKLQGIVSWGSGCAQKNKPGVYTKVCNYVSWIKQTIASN
- Experiment description: Inactivation rate of bovine trypsin, incubation method
- Type: biochemical
- Cond: Table I; 0.1M Hepes, 0.01M CaCl2 pH 7.5, 25° C., 2% DMSO, substrate Z--Arg--SBzl; NI = no inhibition after 25 min
If the reported kobsd /[I] bovine trypsin equals or exceeds 200 M⁻¹ s⁻¹, assign true (1). If not, assign false (0).

CC(NC(=O)C(CCCCN)NC(=O)OCc1ccccc1)C(=O)NC(c1ccc(C(=N)N)cc1)P(=O)(Oc1ccccc1)Oc1ccccc1 (mixture of isomers)
true (1)
Cl.N=C(N)c1ccc(C(NC(=O)[C@@H]2CCCN2C(=O)OCc2ccccc2)P(=O)(Oc2ccccc2)Oc2ccccc2)cc1 (some centres unmarked)
true (1)
N=C(N)c1ccc(C(NS(=O)(=O)c2cccc3ccccc23)P(=O)(Oc2ccccc2)Oc2ccccc2)cc1 (racemic)
false (0)
N=C(N)c1ccc(C(NC(=O)Oc2cccc3ccccc23)P(=O)(Oc2ccccc2)Oc2ccccc2)cc1 (centres unmarked)
false (0)
N=C(N)c1ccc(C(NC(=O)C(CCCCN)NC(=O)OCc2ccccc2)P(=O)(Oc2ccccc2)Oc2ccccc2)cc1 (mixture of isomers)
false (0)
CC(NC(=O)C(CCCCNC(=O)OC(C)(C)C)NC(=O)OCc1ccccc1)C(=O)NC(c1ccc(C(=N)N)cc1)P(=O)(Oc1ccccc1)Oc1ccccc1 (mixture of isomers)
true (1)
Cl.N=C(N)c1ccc(C(NC(=O)C=Cc2cccs2)P(=O)(Oc2ccccc2)Oc2ccccc2)cc1 (centres unmarked)
true (1)
Cl.N=C(N)c1ccc(C(NC(=O)c2cccc(Oc3ccccc3)c2)P(=O)(Oc2ccccc2)Oc2ccccc2)cc1 (centres unmarked)
false (0)
C[C@H](NC(=O)[C@H](CC(=O)OC(C)(C)C)NC(=O)OCc1ccccc1)C(=O)NC(c1ccc(C(=N)N)cc1)P(=O)(Oc1ccccc1)Oc1ccccc1 (some centres unmarked)
true (1)
Cl.N=C(N)c1ccc(C(NC(=O)[C@@H]2CCCN2C(=O)c2cccc(Oc3ccccc3)c2)P(=O)(Oc2ccccc2)Oc2ccccc2)cc1 (some centres unmarked)
true (1)

**Q:** Reported kobsd /[I] bovine trypsin reaches at least 200 M⁻¹ s⁻¹ for N=C(N)c1ccc(C(NC(=O)CCC(=O)O)P(=O)(Oc2ccccc2)Oc2ccccc2)cc1 (centres unmarked) ?
**A:** false (0)

====

Parameter: kobsd /[I] mast cell tryptase. Scope: all listed entries.
- Assay system: mast cell tryptase (Homo sapiens, UniProt Q15661)
- Sequence (Q15661 31-275): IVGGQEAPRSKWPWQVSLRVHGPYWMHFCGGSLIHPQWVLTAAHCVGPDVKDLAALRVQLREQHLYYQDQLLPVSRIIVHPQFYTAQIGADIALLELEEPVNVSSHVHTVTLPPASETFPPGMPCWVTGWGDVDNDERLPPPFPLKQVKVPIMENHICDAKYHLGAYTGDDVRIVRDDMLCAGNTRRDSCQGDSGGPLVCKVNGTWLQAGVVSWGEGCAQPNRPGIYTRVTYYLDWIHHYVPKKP
- Experiment description: Inactivation rate of mast cell tryptase, incubation method
- Type: biochemical
- Cond: Table I; 0.1M Hepes, 10% glycerol, 10 mM heparin, pH 7.5, 25° C., 7.1% DMSO; NI = no inhibition after 25 min of incubation
Write it as a number; the unit M⁻¹ s⁻¹ goes unstated.

Take a look at these entries with their results.
CC(NC(=O)OCc1ccccc1)C(=O)NC(c1ccc(C(=N)N)cc1)P(=O)(Oc1ccccc1)Oc1ccccc1 (mixture of isomers)
0.8
CC(C)C(NC(=O)OCc1ccccc1)C(=O)NC(c1ccc(C(=N)N)cc1)P(=O)(Oc1ccccc1)Oc1ccccc1 (mixture of isomers)
21.2

Now turn to the next molecule.
The measured kobsd /[I] mast cell tryptase associated with N=C(N)c1ccc(C(NC(=O)C2CCCN2C(=O)CCc2ccccc2)P(=O)(Oc2ccccc2)Oc2ccccc2)cc1 (stereo not drawn) reads 0.4

====

- Assay system: mast cell tryptase (Homo sapiens, UniProt Q15661)
- Experiment description: Inactivation rate of mast cell tryptase, incubation method
- Assay type: biochemical
- Cond: Table III; enzyme 0.06-0.5 μM, inhibitor 0.25-42 μM, 9% DMSO, 25° C.; NI = no inhibition
Property name: kobs /[I] mast cell tryptase (M⁻¹ s⁻¹)
Write it as a number; the unit M⁻¹ s⁻¹ goes unstated.

CC(O)C(NC(=O)OCc1ccccc1)C(=O)NC(CCCCN)P(=O)(Oc1ccccc1)Oc1ccccc1 (mixture of isomers)
7
CC(C)C(NC(=O)CCC(=O)O)C(=O)N1CCCC1C(=O)NC(CCCCN)P(=O)(Oc1ccccc1)Oc1ccccc1 (mixture of isomers)
0.6

The measured kobs /[I] mast cell tryptase associated with Cl.NCCCCCC(NC(=O)[C@@H]1CCCN1C(=O)c1cccc(Oc2ccccc2)c1)P(=O)(Oc1ccccc1)Oc1ccccc1 (stereo partly drawn) reads 10

====

- Assay system: mast cell tryptase (Homo sapiens, UniProt Q15661)
- Experiment description: Inactivation rate of mast cell tryptase, incubation method
- Type: biochemical
- Cond: Table I; 0.1M Hepes, 10% glycerol, 10 mM heparin, pH 7.5, 25° C., 7.1% DMSO; NI = no inhibition after 25 min of incubation
- Method: Inactivation rates of serine proteases by aryl diesters of peptidyl derivatives of α-aminoalkylphosphonates were measured by the incubation method. […] Aliquots (50 μl) were withdrawn at various intervals and the residual enzymatic activity was measured. […] All peptide thioesters hydrolysis rates were measured with the assay mixture containing 4,4'-dithiodipyridine {ε324 =19800 M^-1 cm^-1; Grasetti & Murray, Arch. […] ^a Inhibition constants were measured in 0.1M Hepes, 0.01M CaCl2 […]
Property name: kobsd /[I] mast cell tryptase (M⁻¹ s⁻¹)
Write it as a number; the unit M⁻¹ s⁻¹ goes unstated.

Cl.N=C(N)c1ccc(C(NC(=O)c2ccccc2Oc2ccccc2)P(=O)(Oc2ccccc2)Oc2ccccc2)cc1 (stereo not drawn) [2-Phenoxybenzoyl-(4-AmPhGly)^P (OPh)2]
0.4
CC(NC(=O)C(CCCCN)NC(=O)OCc1ccccc1)C(=O)NC(c1ccc(C(=N)N)cc1)P(=O)(Oc1ccccc1)Oc1ccccc1 (mixture of isomers) [Cbz--Lys--Ala-(4-AmPhGly)^P (OPh)2]
2

The measured kobsd /[I] mast cell tryptase associated with CC(NC(=O)OCc1ccccc1)C(=O)NC(C)C(=O)NC(C)C(=O)NC(c1ccc(C(=N)N)cc1)P(=O)(Oc1ccccc1)Oc1ccccc1 (mixture of isomers) [Cbz--Ala--Ala--Ala-(4-AmPhGly)^P (OPh)2] reads 2
